Measured values drawn from paper PMC9518264 for this set.

Entries and their measured inhibition at 10 µM follow.
System: SK-OV-3
Assay: cells
Format: cell-based
Conditions: Homo sapiens, SK-OV-3, read-out: growth inhibition % (GI%)
I only need the number, in %, no unit after it.

// below: answered compounds
O=C(CSc1nc2ccccc2c(=O)n1-c1ccccc1)NN=Cc1ccc(Oc2ccc(Cl)cc2)cc1 [6a]; 16.8
O=C(CSc1nc2ccccc2c(=O)n1-c1ccc(Cl)cc1)NN=Cc1ccc(Oc2ccc(Cl)cc2)cc1 [6d]; 66.2
COc1ccc(Oc2ccc(C=NNC(=O)CSc3nc4ccccc4c(=O)n3-c3ccc(Cl)cc3)cc2)cc1 [6f]; 33.7

INPUT: Item O=C(CSc1nc2ccccc2c(=O)n1-c1ccc(Cl)cc1)NN=Cc1ccc(N2CCCCC2)cc1 [6j] has what recorded inhibition at 10 µM?
OUTPUT: 69.9

INPUT: Item O=C(CSc1nc2ccccc2c(=O)n1-c1ccccc1)NN=Cc1ccc(Oc2ccc(Br)cc2)cc1 [6b] has what recorded inhibition at 10 µM?
OUTPUT: 15.5

----------
Entries and their measured inhibition at 10 µM follow.
System: panel of 60 tumour cell lines
Assay: NCI 60 cell line antiproliferative screening (SRB), whole panel or subpanels (means, ranges, words)
Type: cell-based, human
Conditions: Homo sapiens, 60 cell, mean over the cell line panel; 10 μM; supplementary table 3a-g; read-out: Mean inhibition

INPUT: State its inhibition at 10 µM on panel of 60 tumour cell lines: O=c1c2ccccc2nc(NN=Cc2ccc(Oc3ccc(Cl)cc3)cc2)n1-c1ccccc1
OUTPUT: < 0%

INPUT: State its inhibition at 10 µM on panel of 60 tumour cell lines: COc1ccc(Oc2ccc(C=NNc3nc4ccccc4c(=O)n3-c3ccccc3)cc2)cc1
OUTPUT: 1.6%

INPUT: State its inhibition at 10 µM on panel of 60 tumour cell lines: CN1CCN(c2ccc(C=NNc3nc4ccccc4c(=O)n3-c3ccccc3)cc2)CC1
OUTPUT: < 0%

INPUT: State its inhibition at 10 µM on panel of 60 tumour cell lines: O=c1c2ccccc2nc(NN=Cc2ccc(N3CCCCC3)cc2)n1-c1ccccc1
OUTPUT: < 0%

INPUT: State its inhibition at 10 µM on panel of 60 tumour cell lines: O=c1c2ccccc2nc(NN=Cc2ccc(N3CCOCC3)cc2)n1-c1ccccc1
OUTPUT: < 0%

INPUT: State its inhibition at 10 µM on panel of 60 tumour cell lines: O=c1c2ccccc2nc(NN=Cc2ccc(Oc3ccc(Br)cc3)cc2)n1-c1ccccc1
OUTPUT: < 0%

INPUT: State its inhibition at 10 µM on panel of 60 tumour cell lines: O=c1c2ccccc2nc(NN=Cc2ccc(Oc3ccc(Cl)cc3)cc2)n1-c1ccc(Cl)cc1
OUTPUT: < 0%

----------
Tested on: NCI-H322M
Experiment: cells
Type: cell-based
Conditions: Homo sapiens, read-out: growth inhibition % (GI%)
result.type: inhibition at 10 µM

O=C(CSc1nc2ccccc2c(=O)n1-c1ccccc1)NN=Cc1ccc(Oc2ccc(Cl)cc2)cc1 [6a]; 15.5%

INPUT: State its inhibition at 10 µM on NCI-H322M: O=C(CSc1nc2ccccc2c(=O)n1-c1ccc(Cl)cc1)NN=Cc1ccc(Oc2ccc(Cl)cc2)cc1 [6d]
OUTPUT: < 15%

INPUT: State its inhibition at 10 µM on NCI-H322M: O=C(CSc1nc2ccccc2c(=O)n1-c1ccccc1)NN=Cc1ccc(Oc2ccc(Br)cc2)cc1 [6b]
OUTPUT: < 15%

INPUT: State its inhibition at 10 µM on NCI-H322M: O=C(CSc1nc2ccccc2c(=O)n1-c1ccc(Cl)cc1)NN=Cc1ccc(N2CCCCC2)cc1 [6j]
OUTPUT: 23%

INPUT: State its inhibition at 10 µM on NCI-H322M: COc1ccc(Oc2ccc(C=NNC(=O)CSc3nc4ccccc4c(=O)n3-c3ccc(Cl)cc3)cc2)cc1 [6f]
OUTPUT: 15.3%
